Experiment: in vitro
Conditions: human, Caco-2, pH 7.4
Reported values of Papp A→B at 90 min, 10 μM for individual entries

# example entries with known answers
>  <molecule>
Cc1cccnc1[C@@H]1CCC[C@H](c2nc3cccc(N4CCN5CCCC5C4)c3[nH]2)N1C (stereo partly drawn)

>  <result_type>
Papp A→B at 90 min, 10 μM

>  <observed_result>
10 to 30 ×10⁻⁶ cm/s

$$$$
>  <molecule>
[2H]C([2H])([2H])N1[C@@H](c2nc3cccc(N4CCN(C)CC4)c3[nH]2)CCC[C@H]1c1ncccc1C

>  <result_type>
Papp A→B at 90 min, 10 μM

>  <observed_result>
10 to 30 ×10⁻⁶ cm/s

$$$$

Exam item: Which value of Papp A→B at 90 min, 10 μM has been reported for Cc1c(Cl)ccnc1[C@@H]1CCC[C@H](c2nc3cccc(N4CCN(C)CC4)c3[nH]2)N1C in the records?
Marked response: 10 to 30 ×10⁻⁶ cm/s

The origin of these recorded values is patent US10988465B2.
